- protocol_details: PK of compound of Formula (Ia) after single subcutaneous dose of solution formulations in beagle dogs
- Type: in vivo
- protocol_conditions: male, beagle, dog, plasma, sc, 12 mg/kg, 24.0 h; mean, n = 3 dogs; SC 12 mg/kg; solution U, 500 mg/mL

{"query_smiles": "CC(C)(C#Cc1ccc(-c2ccc(Cl)c3c(NS(C)(=O)=O)nn(CC(F)(F)F)c23)c([C@H](Cc2cc(F)cc(F)c2)NC(=O)Cn2nc(C(F)(F)F)c3c2C(F)(F)[C@@H]2C[C@H]32)n1)S(C)(=O)=O", "unit_descriptor": "nM", "concentration at 24 h": 134}

---

- protocol_details: PK of compound of Formula (Ia) after single subcutaneous dose of solution formulations in beagle dogs
- Type: in vivo
- protocol_conditions: male, beagle, dog, plasma, sc, 12 mg/kg, mean ± SD, n = 3 dogs; SC 12 mg/kg; solution W, 400 mg/mL; read-out: AUC0-1680 h
- Experimental: Formulations containing the compound of Formula (Ia), or a pharmaceutically acceptable salt thereof, were prepared as solutions and optionally administered subcutaneously or intramuscularly to rats, rabbits, and/or dogs. A solution of about 400 mg/mL of the compound of Formula (Ia) having 17.00 w/w % water, 36.40 w/w % PEG 300, 35.20 w/w % of a sodium salt of a compound of Formula (Ia), 5.00 w/w % ethanol, and 6.40 w/w % poloxamer 188 was prepared. […]
outcome_measure: AUC(0-t) (µM·h)

{"query_smiles": "CC(C)(C#Cc1ccc(-c2ccc(Cl)c3c(NS(C)(=O)=O)nn(CC(F)(F)F)c23)c([C@H](Cc2cc(F)cc(F)c2)NC(=O)Cn2nc(C(F)(F)F)c3c2C(F)(F)[C@@H]2C[C@H]32)n1)S(C)(=O)=O", "numeric_result": 142}

---

- protocol_details: PK of compound of Formula (Ia) after single subcutaneous dose of solution formulations in Wistar Han rats
- Assay type: in vivo
- protocol_conditions: male, Wistar Han, rat, plasma, sc, 50 mg/kg, mean ± SD, n = 5 rats; SC 50 mg/kg; solution U, 500 mg/mL; read-out: AUC0-1344 h

{"query_smiles": "CC(C)(C#Cc1ccc(-c2ccc(Cl)c3c(NS(C)(=O)=O)nn(CC(F)(F)F)c23)c([C@H](Cc2cc(F)cc(F)c2)NC(=O)Cn2nc(C(F)(F)F)c3c2C(F)(F)[C@@H]2C[C@H]32)n1)S(C)(=O)=O", "AUC(0-t)": "409 µM·h"}

---

- protocol_details: PK of compound of Formula (Ia) after single subcutaneous dose of solution formulations in beagle dogs
- Format: in vivo
- protocol_conditions: male, beagle, dog, plasma, sc, 12 mg/kg, beagle dogs, SC 12 mg/kg, 500 mg/mL solution X (5.00% ethanol, 1.91% poloxamer 188), 336 h, Mean n = 3
outcome_measure: concentration at 336 h (nM)

{"molecule": "CC(C)(C#Cc1ccc(-c2ccc(Cl)c3c(NS(C)(=O)=O)nn(CC(F)(F)F)c23)c([C@H](Cc2cc(F)cc(F)c2)NC(=O)Cn2nc(C(F)(F)F)c3c2C(F)(F)[C@@H]2C[C@H]32)n1)S(C)(=O)=O [compound of Formula (Ia)]", "numeric_result": 50.3}

---

- protocol_details: PK of compound of Formula (Ia) after single subcutaneous dose of solution formulations in beagle dogs
- Assay type: in vivo
- protocol_conditions: male, beagle, dog, plasma, sc, 12 mg/kg, beagle dogs, SC 12 mg/kg, 400 mg/mL solution W (5.00% ethanol, 1.57% poloxamer 188), 168 h, Mean n = 3

{"compound": "CC(C)(C#Cc1ccc(-c2ccc(Cl)c3c(NS(C)(=O)=O)nn(CC(F)(F)F)c23)c([C@H](Cc2cc(F)cc(F)c2)NC(=O)Cn2nc(C(F)(F)F)c3c2C(F)(F)[C@@H]2C[C@H]32)n1)S(C)(=O)=O [compound of Formula (Ia)]", "concentration at 168 h, nM": 40.3}
